assay: basal S. cerevisiae growth modulation, no modifier, primary screen, OD600, strain BY4716, 24 h, basal condition (AID 1173); details: OD600, 24 h, higher = more signal, called active from +8 up or from −8 down
Quantity Name: z-score
Simply state the number, no unit and no words.

compound=CCCCCCc1nc(-c2ccc(OC)nc2)c(C)c2c1[Si](C(C)C)(C(C)C)OC2 measured_number=-0.121
compound="CCCCCN1CC=CC23O[C@@H]4/C=C\\CCCOC(=O)C4[C@H]2C(=O)N(CCO)[C@@H]3C1=O (stereo partly specified)" measured_number=-1.2
compound=COC(=O)[C@H]1N=C(c2ccc(OCCCO)cc2)O[C@H]1c1ccccc1N=[N+]=[N-] measured_number=-3.93
compound=C[N+](C)(C)CCCC[C@@H]1NC(=O)[C@H]2C[C@@H](C(=O)O)[C@@H](c3ccc(O)cc3)N2C1=O measured_number=-1.58
compound=C[C@]1(C(=O)O)c2ccccc2C(=O)N(Cc2cc(C(F)(F)F)cc(C(F)(F)F)c2)[C@H]1c1ccc(CO)cc1 measured_number=0.0491

As a next step, examine the compound that follows.
# z-score (compound: C=CC[C@]1(C(N)=O)N=C(c2ccc(OCCCO)cc2)O[C@H]1c1ccccc1N=[N+]=[N-] ) is -0.925

---

system: Neuregulin-1 EGF-like domain; experiment: binders of neuregulin-1 EGF-like domain, primary screen, biochemical, small-molecule microarray, 635 nm fluorescence (AID 1081); conditions: small-molecule microarray binding, higher = more signal;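 also: binding of the protein to compounds printed on small-molecule microarray slides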
composite z-score overview

Short answer for COCCCNC(=O)[C@]1(Cc2ccccc2N=[N+]=[N-])N=C(c2ccc(OCCCO)cc2)O[C@@H]1c1ccccc1 : composite z-score was 1.27

---

Measured composite z-score accompanies every entry in the list below.
target: Concanavalin-A (Canavalia ensiformis) (UniProt P02866); assay: ConA small-molecule binders, primary screen, artefact control for SMM control protein annotation, biochemical, small-molecule microarray, Alexa647 label, 635 nm (AID 1127); details: ConA-A647 binding fluorescence, higher = more signal;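 also: z combines 667 nm emission intensity with signal-to-noise across three replicate slides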
Sequence (P02866 whole entry, looked up): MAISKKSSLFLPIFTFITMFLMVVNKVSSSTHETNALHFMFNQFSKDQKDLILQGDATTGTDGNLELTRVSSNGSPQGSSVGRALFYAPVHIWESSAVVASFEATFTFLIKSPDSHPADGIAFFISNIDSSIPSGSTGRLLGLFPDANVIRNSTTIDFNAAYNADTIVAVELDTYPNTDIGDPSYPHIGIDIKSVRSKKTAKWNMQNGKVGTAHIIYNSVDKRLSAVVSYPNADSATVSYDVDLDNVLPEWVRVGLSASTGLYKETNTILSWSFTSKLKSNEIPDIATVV
Just the number, please.

molecule=COCCOC(=O)N1C(=O)[C@@]2(c3cc(C#CCC(C(=O)OC)C(=O)OC)ccc31)[C@H](c1ccc(O)cc1)N1[C@H](c3ccccc3)[C@H](c3ccccc3)OC(=O)[C@H]1[C@@H]2C(=O)N1CCc2cc(OC)c(OC)cc2C1 measured_number=0.903

// sample CC(C)(C)OC(=O)CC[C@]1(C(N)=O)N=C(c2ccc(OCCCO)cc2)O[C@H]1c1ccccc1N=[N+]=[N-] , its composite z-score was 0.741

The value of composite z-score measured for the molecule C=CC[C@]1(C(=O)NCC(O)CO)N=C(c2ccc(OCCCO)cc2)O[C@H]1c1ccccc1CN=[N+]=[N-] (some centres undefined) turned out to be 0.148

Data point: CCOC(=O)C[C@H]1[C@H](OC(=O)c2ccccc2-c2ccccc2)[C@@H](NC(=O)CC(C)C)c2cc(OCCCO)ccc2N1C(=O)c1ccccc1 ; composite z-score = 0.125

---

tested on: Sam68 (KHDRBS1); experiment: Sam68 small-molecule binders, primary screen, biochemical, small-molecule microarray, 635 nm fluorescence (AID 1125); conditions: small-molecule microarray binding, higher = more signal;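 also: score merges 667 nm channel intensity with signal to noise over triplicate slides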
The following molecules are listed with their measured composite z-score values.

smiles_repr=C=CCNC(=O)[C@H]1[C@@H]2C(=O)O[C@@H](c3ccccc3)[C@@H](c3ccccc3)N2[C@@H](c2ccc(O)cc2)[C@]12C(=O)Nc1ccc(C#CCC(C(=O)OC)C(=O)OC)cc12 measured_on="Sam68 (KHDRBS1)" quantity_name="composite z-score" result=0.421
smiles_repr=OCCCc1cc[n+](Cc2cc3c(cc2Br)OCO3)cc1 measured_on="Sam68 (KHDRBS1)" quantity_name="composite z-score" result=-0.724
smiles_repr=CC(C)(C)OC(=O)CC[C@@]1(C(N)=O)N=C(c2ccc(OCCCO)cc2)O[C@@H]1c1ccccc1CN=[N+]=[N-] measured_on="Sam68 (KHDRBS1)" quantity_name="composite z-score" result=0.914
smiles_repr=CC[C@@H](O[Si](C#C[Si](C(C)C)(C(C)C)C(C)C)(C(C)C)C(C)C)c1cn(Cc2cccc(Cl)c2)nn1 measured_on="Sam68 (KHDRBS1)" quantity_name="composite z-score" result=1.04
smiles_repr=Cc1ccc(S[C@]2(C(=O)NC(C)C)CC(=O)N(Cc3ccccc3)[C@@H]2c2ccc(CO)cc2)cc1 measured_on="Sam68 (KHDRBS1)" quantity_name="composite z-score" result=-0.76

Consider C=CCNC(=O)[C@@H]1[C@H]2C(=O)O[C@H](c3ccccc3)[C@H](c3ccccc3)N2[C@H](c2ccc(O)cc2)[C@@]12C(=O)N(C(=O)OCCOC)c1ccc(C#CCC(C(=O)OC)C(=O)OC)cc12 . Its measured composite z-score is 1.3

Summary for this molecule, CCCC[C@@H](O)C1=C(C)Cn2c(=O)n(-c3ccccc3)c(=O)n2[C@H]1CO : composite z-score is -0.92

---

target: Carbonic anhydrase 2 (Homo sapiens) (UniProt P00918); experiment: CAII small-molecule binders, profiling panel, biochemical, small-molecule microarray, Alexa647-labelled CAII (AID 1122); settings: CAII-A647 binding fluorescence, higher = more signal
Rule: composite z-score under 0.6 gives no (0), otherwise yes (1).

Observe how each entry below is paired with its result.
compound=COCCOC(=O)N1C(=O)[C@@]2(c3cc(C#CCNC(N)=O)ccc31)[C@H](C(=O)Nc1nc3ccccc3s1)[C@H]1C(=O)O[C@H](c3ccccc3)[C@H](c3ccccc3)N1[C@@H]2c1ccc(O)cc1 discrete_label="no (0)"
compound=O=C(NCCN1CCOCC1)[C@@H]1c2ccccc2C(=O)N(CC23CC4CC(CC(C4)C2)C3)[C@H]1c1ccc(CO)cc1 discrete_label="yes (1)"

*Q* Tell me whether composite z-score is at least 0.6 here: COCCOC(=O)N1C(=O)[C@@]2(c3cc(C#CCC(C(=O)OC)C(=O)OC)ccc31)[C@H](C(=O)N1CCc3cc(OC)c(OC)cc3C1)[C@H]1C(=O)O[C@H](c3ccccc3)[C@H](c3ccccc3)N1[C@@H]2c1ccccc1OCCO
*A* no (0)

*Q* Please tell me: is the compound CCc1cccc(NC(=O)O[C@H]2[C@H](OC(=O)Nc3ccccc3-c3ccccc3)[C@H](OC(=O)Nc3ccccc3-c3ccccc3)[C@@H](OC)O[C@@H]2CO)c1 at or over 0.6 in terms of composite z-score?
*A* yes (1)

*Q* Does the compound COc1ccc(C(O)C2C=CC3C(=O)N(c4ccccc4)C(=O)C3N2Nc2ccccc2F)c2ccccc12 (stereo not drawn) have recorded composite z-score that is 0.6 or more?
*A* yes (1)

---

assay: yeast growth modulation, basal conditions, primary screen, YJM789 clinical isolate, OD600, 24 h (AID 1089);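 also: growth of clinical yeast isolate S. cerevisiae YJM 789 seeded 1000 cells per well; test concentration not given here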; conditions: S. cerevisiae YJM789 growth, higher = more signal, called active from +8 up or from −8 down
Quantity Name: z-score
When you answer, write just the number.

compound=COC(=O)[C@@]1(Cc2ccc(F)cc2)[C@H]2c3cc(C(=O)N(C)C)n(Cc4ccc(C(F)(F)F)nc4)c3C[C@H]2CN1C(=O)c1ccccc1 measured_number=0.538

Measured z-score, C=CCNC(=O)[C@H]1[C@@H]2C(=O)O[C@@H](c3ccccc3)[C@@H](c3ccccc3)N2[C@@H](c2ccc(O)cc2)[C@]12C(=O)N(C(=O)OCCOC)c1ccc(C#Cc3ccc(OC)cc3)cc12 : 0.622

Field z-score (entry COc1cc(Cc2cc3c(c(-c4ccccc4)n2)[Si](C(C)C)(C(C)C)OC3)cc(OC)c1OC ) reads 0.208

Noted for C[C@H]1C2[C@H](Cc3ccccc3)NC(=O)[C@]23C(=O)N[C@@H](Cc2ccccc2)C(=O)N2CCC[C@H]2C(=O)NC/C=C/CC/C=C/C3[C@@H]2O[C@]12C (some centres undefined) : its z-score reads -0.501

So for COC(=O)C1=CC(CCCO)=CC(c2ccc(CN3CCCC3)cc2)N(C)C=C1C(=O)OC (centres undefined) , the logged z-score turned out to be -0.512

Short answer for CCOC(=O)C[C@H]1[C@H](OC(=O)c2ccc(-c3ccccc3)cc2)[C@@H](NC(=O)c2ccc(-c3ccccc3)cc2)c2cc(OCCCO)ccc2N1C(=O)c1ccccc1 : z-score was 0.495

---

test: MM1S cell viability effects, profiling panel, calcein-AM fluorescence, 48 h, basal (AID 1165); conditions: higher = more signal;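 also: viability of MM1S multiple myeloma cells under basal unstimulated conditions; test concentration not given here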
Heads up, the class ranges for z-score are class 1: < -2; class 2: ≥ -2 and < -0.4; class 3: ≥ -0.4

Solved cases (3 shown):
compound=CCCC=C(CCC)[C@@H](NC(=O)c1ccc(C(=O)OC)cc1)c1ccc(C(=O)OC)cc1 discrete_label="class 2"
compound=C=CCN1C(=O)[C@]2(O[C@H](CCO)[C@@H]([Si](C)(C)c3ccc(OC)cc3)[C@@H]2C)c2cc(N3C(=O)c4ccccc4Oc4ccccc43)ccc21 discrete_label="class 1"
compound=COc1ccc(-c2cc3c(c(CCc4ccccc4)n2)[Si](C(C)C)(C(C)C)O[C@H]3c2ccccc2)cn1 discrete_label="class 2"

*Q* Band for the recorded z-score of COCCOC(=O)N1C(=O)[C@@]2(c3cc(C#CCNC(N)=O)ccc31)[C@H](C(N)=O)[C@H]1C(=O)O[C@H](c3ccccc3)[C@H](c3ccccc3)N1[C@@H]2c1ccc(O)cc1 ?
*A* class 3

*Q* Which bin, given its z-score, does C=CCC(OC(C)=O)[C@@H]1[C@@H](N(Cc2ccc(-c3ccccc3)cc2)C(=O)Cc2ccc(OC)cc2)c2cc(OCCCO)ccc2N1C(=O)c1ccc2ccccc2c1 (some centres undefined) occupy?
*A* class 2

*Q* For the record CCCCC=C[C@@H](NC(=O)C(C)(C)C)c1ccccc1 , report the class its z-score corresponds to.
*A* class 1

*Q* Could you tell me which band COC(=O)[C@@]1(Cc2ccccc2)[C@H]2c3cc(C(=O)N(C)C)n(Cc4nc5ccccc5[nH]4)c3C[C@H]2CN1C(=O)c1ccccc1 belongs to?
*A* class 3

*Q* Class (by measured z-score) for Cc1ccc(S[C@]2(C(=O)NCC(C)C)CC(=O)N(C(C)C)[C@@H]2c2ccc(CO)cc2I)cc1
*A* class 1

*Q* For this compound, which bin applies? COc1ccc([Si](C)(C)[C@@H]2[C@@H](CC(=O)N(CCO)Cc3ccccc3)O[C@]3(C(=O)N(Cc4cccc(I)c4)c4ccccc43)[C@H]2C)cc1
*A* class 1

*Q* Which category fits this record: C=C[C@H](C)[C@@H](OC(=O)Nc1ccc(SC)cc1)c1ccc(OCCO)cc1
*A* class 2

*Q* Class label required: COCCCNC(=O)[C@@]1(c2ccc([N+](=O)[O-])cc2)CC(=O)N(C2CCCCC2)[C@@H]1c1ccc(CO)cc1I
*A* class 2

*Q* Which class does COCCCNC(=O)[C@@]1(CCC(=O)OC(C)(C)C)N=C(c2ccc(OCCCO)cc2)O[C@H]1c1ccccc1 fall in?
*A* class 3

*Q* # bin lookup: classify CO[C@H]1O[C@H](CO)[C@@H](OC(=O)Nc2cccc(F)c2)[C@H](OC(=O)Nc2ccc3c(c2)OCO3)[C@@H]1OC(=O)Nc1ccc2c(c1)OCO2 by its z-score
*A* class 2
